assay: Substrate activity at P-gp in MDCKII-MDR1 cells assessed as efflux ratio of apparent permeability from apical to basolateral side over basolateral to apical side at 10 uM incubated for 90 mins by LC-MS/MS analysis; details: dog, mdckii-mdr1, 1.5 h
Assign Ratio to each entry below.

Looking for the measured Ratio of `CN1CCN(CC(=O)Nc2sc3c(c2C(=O)NCc2ccccc2)CCCC3)CC1` , can you help?
1.1

What value of Ratio has been recorded for this entry: CC1CCCN1C(=O)c1c(NC(=O)c2cccnc2)sc2c1CCCC2 (stereo not given)
0.8

Quick check: Ratio of `CSc1ncc(Cl)c(C(=O)Nc2sc3c(c2C(=O)NCc2ccccc2)CCCC3)n1` ?
0.3

Fill in: Ratio of CSc1ncc(Cl)c(C(=O)Nc2sc3c(c2C(=O)NC2CCS(=O)(=O)C2)CCC(C)C3)n1 (stereo not given) is ___
8.7

Looking for the measured Ratio of O=C(Nc1sc2c(c1C(=O)N1CCC(CO)C1)CCCC2)c1cccnc1 (stereo not given) , can you help?
4.7

====

target: Nuclear receptor ROR-gamma (Homo sapiens) (UniProt P51449); conditions: HEK293T, filed as inverse agonist, dose 0.004-1000 nM
Sequence (P51449 whole entry): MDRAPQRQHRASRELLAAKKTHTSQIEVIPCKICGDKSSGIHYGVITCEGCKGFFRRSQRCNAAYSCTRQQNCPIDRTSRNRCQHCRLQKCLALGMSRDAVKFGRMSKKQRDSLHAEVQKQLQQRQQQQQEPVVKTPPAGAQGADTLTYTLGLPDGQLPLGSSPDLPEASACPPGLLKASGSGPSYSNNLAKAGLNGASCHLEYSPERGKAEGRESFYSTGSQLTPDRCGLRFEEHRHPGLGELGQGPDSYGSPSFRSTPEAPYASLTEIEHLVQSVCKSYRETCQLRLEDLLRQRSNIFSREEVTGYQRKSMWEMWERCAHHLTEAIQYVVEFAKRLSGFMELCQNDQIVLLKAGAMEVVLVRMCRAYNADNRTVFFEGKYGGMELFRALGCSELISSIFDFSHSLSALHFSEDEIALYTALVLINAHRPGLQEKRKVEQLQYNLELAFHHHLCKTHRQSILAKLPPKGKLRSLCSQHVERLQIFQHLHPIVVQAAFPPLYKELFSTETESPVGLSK
Task for the reader: assign each of the following compounds its reported deltaG.
Note to self: number, then unit, no commentary.

# input compound: `O=C(Nc1sc2c(c1C(=O)c1ccccc1)CCCC2)c1cnccn1` ; wanted: its deltaG
-10.1 kcal/mol

Data request, read-out deltaG, for `O=C(Nc1sc2c(c1C(=O)NCC1CCNCC1)CCCC2)c1cccnc1`
-7.29 kcal/mol

Query (compound): `Cn1cnc(CNC(=O)c2c(NC(=O)c3cccnc3)sc3c2CCCC3)n1` ; field requested: deltaG
-13.3 kcal/mol

Give its deltaG value. Item: `Cc1cnc(S(C)(=O)=O)nc1C(=O)Nc1sc2c(c1C(=O)c1ccccc1)CCCC2`
-10.1 kcal/mol

Could you share which deltaG value was measured for CC1CCCN1C(=O)c1c(NC(=O)c2cccnc2)sc2c1CCCC2 (stereo not given) ?
-7.57 kcal/mol

====

experiment: Lipophilicity, logD of the compound at pH 7.4; settings: buffer
Experimental Endpoint: logD
// no unit string in output, number only

Entry under review: O=C(Nc1sc2c(c1C(=O)N1CCC(CO)C1)CCCC2)c1cccnc1 (configuration not stated) . Reported logD?
2.6

Could you tell me which logD is on file for `Cc1cnc(S(C)(=O)=O)nc1C(=O)Nc1sc2c(c1C(=O)c1ccccc1)CCCC2` ?
3.94

For the molecule `Cc1ccnc(SCC(=O)Nc2sc3c(c2C(=O)NCc2ccccc2)CCCC3)n1` , what logD is on record?
4.92

I would be grateful if you could share the reported logD for `O=C(Nc1sc2c(c1C(=O)NCC1CCNCC1)CCCC2)c1cccnc1` .
0.4

Return reported logD; argument: `CC1CCN(CC(=O)Nc2sc3c(c2C(=O)NCc2ccccc2)CCCC3)CC1`
4.57

Suppose we examine the molecule `Cn1cnc(CNC(=O)c2c(NC(=O)c3cccnc3)sc3c2CCCC3)n1` ; what logD value has been reported?
1.62

# get_value(readout='logD', item= `CSc1ncc(Cl)c(C(=O)Nc2sc3c(c2C(=O)NCc2ccccc2)CCCC3)n1` )
5.45

Given the entry C[C@@H]1CCN(C(=O)c2c(NC(=O)c3cccnc3)sc3c2CCCC3)[C@H](C)C1 (single isomer, unassigned) , report its measured logD.
4.45

So what's the measured logD for this one? `CN1CCN(CC(=O)Nc2sc3c(c2C(=O)NCc2ccccc2)CCCC3)CC1`
3.06

Quick one: logD for CC1CCCN1C(=O)c1c(NC(=O)c2cccnc2)sc2c1CCCC2 (configuration not stated) ?
3.68

Find the recorded logD belonging to `C[C@@H](C#N)NC(=O)c1c(NC(=O)c2cccnc2)sc2c1CCCC2` and report it.
2.85

# get_value(readout='logD', item= CCc1ccc(N(CC(C)C)S(=O)(=O)c2ccc(OCC3CCOCC3)c(CO)c2)cc1 [GSK2981278] )
4.11

I am curious: what logD value has been reported for `O=C(CN1CCCCC1)Nc1sc2c(c1C(=O)NCc1ccccc1)CCCC2` ?
4.33

# input molecule: CN1CCN(C(=O)c2c(NC(=O)c3ccccc3F)sc3c2CCC(C(C)(C)C)C3)CC1 (configuration not stated) ; wanted: its logD
5.06

Need logD of `O=C(NCc1ccccc1)c1c(NC(=O)C(F)(F)F)sc2c1CCCC2` , thanks.
4.43

Requested read-out: logD. Entry: CCC1CCN(C(=O)c2c(NC(=O)c3cccnc3)sc3c2CCCC3)C1 (configuration not stated)
4.05

Sample `O=C(Nc1sc2c(c1C(=O)c1ccccc1)CCCC2)c1cnccn1` — what was its logD?
4.15
